Ref: PubChem BioAssay

- Assay protocol: probe aDKK1 binding to arrayed compounds – biochemical, biotinylated probe, 635/667 nm fluorescence, primary screen (AID 1099);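 note: score merges 667nm spot fluorescence with signal to noise across triplicate slides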
- Condition context: small-molecule microarray, higher = more signal
Reported composite z-score values for a set of compounds

Compound	composite z-score
C[N+](C)(C)CCCC[C@@H]1NC(=O)[C@H]2C[C@@H](C(=O)NCCCCCNC(=O)CS)[C@@H](c3cccc(OCCO)c3)N2C1=O	0.242
COCCCNC(=O)[C@@]1(CCS(=O)(=O)c2ccccc2)COC(c2ccc(OCCCO)cc2)=N1	1.56
CCN(CC)c1ccc(N2CC=CC34O[C@@H]5C=CCCOC(=O)C5[C@H]3C(=O)N(C(C)CO)[C@@H]4C2=O)cc1 (some centres not stated)	-0.24
C=CCC(OC(C)=O)[C@@H]1[C@@H](N(Cc2ccc(-c3cccc(C(F)(F)F)c3)o2)C(=O)Cc2ccc(F)cc2)c2cc(OCCCO)ccc2N1C(=O)Cc1ccc2ccccc2c1 (some centres not stated)	-0.341
NC(=O)N1C(=O)C2C(C1=O)C1C=C(CCCO)C2C(c2ccc(CN3CCCC3)cc2)N1Cc1sc2ccccc2c1Cl (configuration not stated)	-0.291
O=C1C[C@@](C(=O)NC2CC2)(c2ccc([N+](=O)[O-])cc2)[C@@H](c2ccc(CO)cc2)N1C1CCCCC1	0.0035
CC(C)C[C@H]1NC(=O)C([C@@H](C)OCc2ccccc2)NC(=O)[C@@]23C(=O)N[C@@H](Cc4ccccc4)C2[C@H](C)[C@@]2(C)O[C@H]2C3/C=C/C/C=C\CNC1=O (some centres not stated)	-0.261

---

- Assay protocol: optical density shifts of acrAB sulA E. coli – strain DRC41, OD650, 48 h, E. coli filamentation inducer project, primary screen (AID 1152);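 note: E. coli MC1000 strain DRC41 lacking acrAB efflux pump and sulA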
- Condition context: higher = more signal, called active from +8 up or from −8 down

Compound	z-score
C=CCC(OC(C)=O)[C@@H]1[C@@H](N(Cc2cccc3ccccc23)C(=O)Cc2ccc(OC)cc2)c2cc(OCCCO)ccc2N1C(=O)Cc1ccc2ccccc2c1 (some centres not stated)	-0.504
O=C1C[C@]2(c3ccc([N+](=O)[O-])cc3)C(=O)N(C3CC3)c3cc(CO)ccc3[C@H]2N1C1CCCCC1	-0.348
COCCOC(=O)N1C(=O)[C@@]2(c3ccccc31)[C@H](C(=O)N1CCN(c3ncccn3)CC1)[C@H]1C(=O)O[C@H](c3ccccc3)[C@H](c3ccccc3)N1[C@@H]2c1ccccc1OCCO	2.86
COC(=O)[C@@]1(Cc2ccc(F)cc2)[C@H]2c3cc(C(=O)N4CCCC4)n(CCc4ccccn4)c3C[C@H]2CN1C(=O)c1ccccc1	-1.04
COc1ccc(C(=O)Nc2ccc(CN3C(=O)[C@@]4(O[C@@H](CCn5cc(CCO)nn5)[C@H]([Si](C)(C)c5ccc(OC)cc5)[C@H]4C)c4ccccc43)cc2)cc1	-2.53
COC(=O)[C@@]1(Cc2ccccc2)[C@H]2c3cc(C(=O)N(C)C)n(CCO)c3C[C@H]2CN1C(=O)c1ccccc1	-1.65
COc1ccc(NN2C(C(O)c3ccc(I)cc3)C=CC3C(=O)N(C4CCCCC4)C(=O)C32)cc1 (configuration not stated)	-0.111

---

- System name: Alpha-bungarotoxin (Bungarus multicinctus) (UniProt P60615)
- Sequence (P60615 whole entry, looked up): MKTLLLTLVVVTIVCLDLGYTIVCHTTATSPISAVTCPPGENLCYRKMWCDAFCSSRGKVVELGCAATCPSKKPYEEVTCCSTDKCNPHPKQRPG
- Assay protocol: compounds binding labelled alpha-BTX control protein – biochemical, small-molecule microarray, Alexa647 label, 635/667 nm fluorescence, artefact control for SMM control protein annotation, profiling panel (AID 1117)
- Condition context: alpha-BTX-A647 binding fluorescence, higher = more signal
Reported composite z-score values for a set of molecules
Readout name: composite z-score

Molecule	Reported measurement
O=C(O)[C@H](Cc1ccccc1)n1cc(C2(O)CCCCC2)nn1	0.0396
CC1CC/C=C\[C@H]2OC34C=CCN(C(C)(C)C)C(=O)[C@H]3N(CCCO)C(=O)[C@@H]4C2C(=O)O1 (stereo not given in full)	-1.18
CC1CC/C=C\[C@H]2OC34C=CCN(Cn5nnc6ccccc65)C(=O)[C@H]3N(CCCCCCO)C(=O)[C@@H]4C2C(=O)O1 (stereo not given in full)	-0.551
O=C1O[C@H](Cc2ccccc2)[C@@H]2[C@H]3C=CCCC=C3CN2[C@H]1Cc1ccc(O)cc1	-0.224
COc1ccc([Si](C)(C)[C@H]2[C@H](CCO)O[C@@]3(C(=O)N(Cc4ccc(NC(=O)[C@H](C)O)cc4)c4ccccc43)[C@@H]2C)cc1	1.24
C=C(CCCC)/C(=C/C[C@H](OC(=O)c1ccncc1)c1ccc(OCCO)cc1)c1cnc2ccccc2c1	2.52
COC(=O)C(CC#Cc1ccc2c(c1)[C@]1(C(=O)N2)[C@H](C(=O)NC[C@H](O)c2ccccc2)[C@H]2C(=O)O[C@H](c3ccccc3)[C@H](c3ccccc3)N2[C@@H]1c1ccccc1OCCO)C(=O)OC	1.61
O=C1O[C@H](c2ccccc2)[C@H](c2ccccc2)N2[C@H]1[C@@H](C(=O)O)[C@]1(C(=O)Nc3ccc(C#CCCO)cc31)[C@H]2c1ccc(OCCO)cc1	2.47
COC(=O)[C@H](Cc1ccc(O)cc1)N[C@@H](/C=C/C1CC1)[C@H](O)Cc1ccccc1	-0.22
C=CCNC(=O)[C@H]1[C@@H]2C(=O)O[C@@H](c3ccccc3)[C@@H](c3ccccc3)N2[C@@H](c2ccc(OCCO)cc2)[C@]12C(=O)Nc1ccccc12	1.4
C=C(CCCC)/C(=C/C[C@@H](OC(C)=O)c1ccc(CO)o1)c1cnc2ccccc2c1	1.15
O=C(NCC(O)CO)[C@@]1(CCS(=O)(=O)c2ccccc2)N=C(c2ccc(OCCCO)cc2)O[C@H]1c1ccccc1 (stereo not given in full)	3.32
O=C1C[C@@](C(=O)O)(c2ccc([N+](=O)[O-])cc2)[C@@H](c2ccc(CO)cc2)N1C1CCCCC1	1.07
CN(C)CCCCNC(=O)[C@H]1C[C@H]2C(=O)N3CCC[C@H]3C(=O)N2[C@H]1c1cccc(OCCO)c1	1.43
COCCCNC(=O)[C@@]1(CCC(=O)OC(C)(C)C)COC(c2ccc(OCCCO)cc2)=N1	0.778

---

- Tested on: Human papillomavirus type 1a E7 protein (residues 1-88)
- Assay protocol: HPV1a E7 small-molecule binders, primary screen, biochemical, small-molecule microarray, residues 1-88, 635 nm (AID 1129)
- Condition context: small-molecule microarray binding, fluorescence 635 nm; higher = more signal
Outcome: TRUE for composite z-score of at least 1; FALSE for anything lower.

Compound	Discrete label
C=CCNC(=O)[C@@H]1[C@H]2C(=O)O[C@H](c3ccccc3)[C@H](c3ccccc3)N2[C@H](c2ccc(OCCO)cc2)[C@@]12C(=O)Nc1ccc(C#CC3(O)CCCCCC3)cc12	TRUE
CC1=C([C@H](O)CCc2ccccc2)[C@H](CO)n2c(=O)n(-c3ccccc3)c(=O)n2C1	FALSE
CC(C)=CCCC(C)=CC(O)C1C=CC2C(=O)NC(=O)C2N1Nc1ccc(Cl)cc1Cl (stereo unspecified)	TRUE
C[N+](C)(C)CCCCNC(=O)[C@H]1C[C@H]2C(=O)N[C@@H](Cc3ccccc3)C(=O)N2[C@H]1c1cccc(OCCO)c1	FALSE
CCCCC(O)C1C=CC2C(=O)N(c3ccccc3)C(=O)C2N1Nc1ccc([N+](=O)[O-])cc1 (stereo unspecified)	TRUE

---

Reported composite z-score values for a set of compounds
- System name: Calmodulin-1 (Homo sapiens) (UniProt P0DP23)
- Assay protocol: small molecules binding calmodulin-1 with EGTA – biochemical, small-molecule microarray, Cy5-labelled CALM1, profiling panel (AID 1111);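 note: labelled calmodulin applied in Tris saline Tween buffer holding calcium plus EGTA and DTT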
- Condition context: Cy5-CALM1 binding fluorescence, higher = more signal
Readout name: composite z-score

Compound	Reported measurement
CCOC(=O)C[C@H]1[C@H](OC(=O)Cc2ccc3c(c2)OCO3)[C@@H](NC(=O)Cc2ccc(OC)cc2)c2cc(OCCCO)ccc2N1C(=O)Cc1ccc(OC)cc1	0.824
C=C(COC)/C(=C/C[C@H](OC(C)=O)c1ccccc1OCCO)c1cc(C(=O)OC)ccc1OC	-0.471
CCCC[C@H]1C[C@@H]1[C@@H]1N(C(C)=O)[C@H](c2cccc(OC)c2)CC12CC2	1.03
CCOc1cc(C(O)C2C=CC3C(=O)N(c4ccccc4)C(=O)C3N2Nc2ccccc2F)ccc1O (stereo not drawn)	0.182
COC(=O)[C@H](Cc1ccc(O)cc1)N[C@@H](/C=C/C1CC1)[C@H](O)Cc1ccccc1	-0.851
COC(=O)[C@@]1(Cc2ccccc2)[C@H]2c3cc(C(=O)N(C)C)n(CCSC(=N)N)c3C[C@H]2CN1C(=O)c1ccccc1	0.96
O=C(NC1CC1)[C@@H]1c2ccccc2C(=O)N(Cc2cc(C(F)(F)F)cc(C(F)(F)F)c2)[C@H]1c1ccc(CO)cc1	0.146
C[C@]1(C(=O)O)c2ccccc2C(=O)N(Cc2cc(F)cc(C(F)(F)F)c2)[C@H]1c1ccc(CO)cc1	-0.16

---

Reported composite z-score values for a set of compounds
- Assay protocol: small molecules captured by biotinylated probe aFGF2 – biochemical, small-molecule microarray, fluorescence 635/667, stem cell growth factor project, primary screen (AID 1067);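 note: measures binding of biotinylated aFGF2 protein to printed compounds on slides; z-score merges feature fluorescence and signal-to-noise across triplicate slides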
- Condition context: higher = more signal

Compound	composite z-score
CN1C(=O)C2C(C3CC3)C=C3CN(Cc4cccc(Cl)c4)[C@@H]([C@@H](O)Cc4ccccc4)C3C2C1=O (some centres not stated)	-0.229
CCOC(=O)c1cn(C[C@H](Cc2ccccc2)NC(=O)N[C@H](CO)CCc2oc(C(C)=O)c(C(=O)OC)c2C(=O)OC)nn1	-0.101
O=C(NCc1ccc(F)cc1)[C@H]1C[C@H]2C(=O)N3CCC[C@H]3C(=O)N2[C@H]1c1ccc(O)cc1	-0.195
O=C1O[C@@H](c2ccccc2)[C@@H](c2ccccc2)N2[C@@H](c3ccccc3OCCO)[C@]3(C(=O)Nc4ccc(C#CCCO)cc43)[C@@H](C(=O)NC[C@H](O)c3ccccc3)[C@H]12	0.277
C=CCNC(=O)[C@@H]1[C@H]2C(=O)O[C@H](c3ccccc3)[C@H](c3ccccc3)N2[C@H](c2ccc(OCCO)cc2)[C@@]12C(=O)Nc1ccc(C#CC3(O)CCCCCC3)cc12	-0.0765
CN(C)C(=O)[C@@]1(Cc2ccccc2CN=[N+]=[N-])COC(c2ccc(OCCCO)cc2)=N1	-0.085
C=C(CCCC)C(=O)CC[C@H](OC(=O)c1ccccc1-c1ccccc1C(=O)O)c1ccc(OCCO)cc1	-0.0876
